Just for reference, PubChem BioAssay AID272 is where these values come from.

test system: Lewis lung carcinoma i.m., BDF1 mice, T/C %; experiment: NCI In Vivo Anticancer Drug Screen. Data for tumor model Lewis Lung Carcinoma (intramuscular) in B6D2F1 (BDF1) mice; details: endpoint: median survival time; dose: 8.0 mg/kg/injection; schedule: Q01DX011 (ip); vehicle: saline
Inconclusive results are not listed. The calls were made as follows: active = survival T/C of 150% or more; inactive = T/C below 125% in these data.
Classes used: 1 (yes) = active, 0 (no) = inactive

compound	className
Cc1cccc2cc3c(ccc4ccccc43)c[n+]12	0 (no)
Nc1nc(=O)n(C2OC(CO)C(O)C2O)cc1F (configuration not stated)	0 (no)
Cc1c(N)nc([C@H](CC(N)=O)NC[C@H](N)C(N)=O)nc1C(=O)N[C@H](C(=O)N[C@H](C)[C@@H](O)[C@H](C)C(=O)N[C@H](C(=O)NCCc1nc(-c2nc(C(=O)NCCC[S+](C)C)cs2)cs1)[C@@H](C)O)C(OC1OC(CO)C(O)C(O)C1OC1OC(CO)C(O)C(OC(N)=O)C1O)c1cnc[nH]1 (some centres not stated)	1 (yes)
CCc1ccc(/C=C/c2ccc(O)c3ncccc23)[n+](C)c1	0 (no)
CCCCCCCCCCCCCCCCCC[n+]1cccc(C(=O)N2CCOCC2)c1	0 (no)
ClC1=NC(Cl)C(Cl)=N/C1=N\c1ncn[nH]1 (configuration not stated)	0 (no)
FC(F)(F)c1nc2nc(Cl)c(Cl)nc2[nH]1	0 (no)
